assay.method.text: Partition coefficient (LogP), octanol/water method
Type: physicochemical
measurement.context: shake-flask 1-octanol/milli-Q H2O (0.85 mL + 0.85 mL), 2.5 mg, vortexed 1 min, left standing 3 h, both layers by RP-HPLC-UV 214 nm
Where a SMILES comes first, the peptide text is derived from it. The star is where a group is joined. Ethynyl(2-Si(iPr)3) = CC(C)[Si](C#C*)(C(C)C)C(C)C
observable: logP
Hey, just send me the number, nothing else.

Query block: Which logP reading was recorded for the molecule CC(=O)N[C@@H](C)C(=O)N[C@@H](CSC#C[Si](C(C)C)(C(C)C)C(C)C)C(=O)NCC(=O)N[C@@H](Cc1ccccc1)C(N)=O [11a] (Ac-AC(Ethynyl(2-Si(iPr)3))GF-NH2) ?
Result block: 1.53
